meta.source: patent US9085603B2

biological target: human progesterone receptor A (Homo sapiens); assay: Progesterone receptor antagonistic effect in stably transfected SK-N-MC cells, MTV-LUC reporter (PR-A); conditions: antagonism of 0.1 nmol/l promegestone, luciferase reporter, 24 hours
Sequence (P06401 165-933): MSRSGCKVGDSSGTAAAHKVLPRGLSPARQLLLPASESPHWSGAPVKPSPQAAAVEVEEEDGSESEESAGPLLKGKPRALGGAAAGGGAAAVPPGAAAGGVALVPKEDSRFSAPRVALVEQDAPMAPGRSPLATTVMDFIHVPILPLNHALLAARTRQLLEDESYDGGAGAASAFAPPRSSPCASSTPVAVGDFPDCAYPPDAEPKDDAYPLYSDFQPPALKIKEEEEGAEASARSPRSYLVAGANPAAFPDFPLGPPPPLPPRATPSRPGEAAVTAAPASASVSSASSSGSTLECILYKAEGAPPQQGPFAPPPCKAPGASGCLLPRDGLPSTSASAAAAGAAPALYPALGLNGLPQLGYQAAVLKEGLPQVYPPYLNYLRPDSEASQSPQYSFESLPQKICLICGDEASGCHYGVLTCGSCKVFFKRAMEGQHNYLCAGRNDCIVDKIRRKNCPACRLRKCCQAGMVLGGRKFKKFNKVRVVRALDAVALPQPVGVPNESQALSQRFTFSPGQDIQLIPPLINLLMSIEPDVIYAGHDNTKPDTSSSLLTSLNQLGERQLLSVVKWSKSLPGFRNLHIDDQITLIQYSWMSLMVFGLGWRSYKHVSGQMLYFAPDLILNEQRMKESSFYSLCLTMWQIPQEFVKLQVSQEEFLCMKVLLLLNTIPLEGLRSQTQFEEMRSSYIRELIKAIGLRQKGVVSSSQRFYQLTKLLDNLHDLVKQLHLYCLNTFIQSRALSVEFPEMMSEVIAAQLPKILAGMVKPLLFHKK
readout.label: IC50 (nM)

Recorded results for 5 compounds are shown here.
| compound | IC50 (nM) |
| --- | --- |
| C[C@]12C[C@H](c3ccc(CN4CCc5ccccc5C4)cc3)C3=C4CCC(=O)C=C4CCC3C1CC[C@@]2(O)C(F)(F)C(F)(F)F (stereo partly shown) | 2.35 |
| CC(C)(C)C(=O)N1CCN(Cc2ccc([C@H]3C[C@@]4(C)C(CC[C@@]4(O)C(F)(F)C(F)(F)F)C4CCC5=CC(=O)CCC5=C43)cc2)CC1 (stereo partly shown) | 0.1 |
| CN(C)CCN(C)Cc1ccc([C@H]2C[C@@]3(C)C(CC[C@@]3(O)C(F)(F)C(F)(F)F)C3CCC4=CC(=O)CCC4=C32)cc1 (stereo partly shown) | 3.52 |
| CC(C)(C)OC(=O)N1CCN(Cc2ccc([C@H]3C[C@@]4(C)[C@@H](CC[C@@]4(O)C(F)(F)C(F)(F)F)[C@@H]4CCC5=CC(=O)CCC5=C43)cc2)CC1 | 0.11 |
| CC(=O)N1CCCN(Cc2ccc([C@H]3C[C@@]4(C)C(CC[C@@]4(O)C(F)(F)C(F)(F)F)C4CCC5=CC(=O)CCC5=C43)cc2)CC1 (stereo partly shown) | 0.56 |

[A] C[C@]12C[C@H](c3ccc(CN4CCN(CCc5ccccc5)CC4)cc3)C3=C4CCC(=O)C=C4CC[C@H]3[C@@H]1CC[C@@]2(O)C(F)(F)C(F)(F)F
[B] C[C@]12C[C@H](c3ccc(CN4CCN(CCN5CCCC5)CC4)cc3)C3=C4CCC(=O)C=C4CC[C@H]3[C@@H]1CC[C@@]2(O)C(F)(F)C(F)(F)F
stdin: Which numeric IC50 is bigger, that of A or that of B ? Refer to your chosen item by its label in the answer.
stdout: B

[A] C[C@]12C[C@H](c3ccc(CNc4ccc(S(N)(=O)=O)cc4)cc3)C3=C4CCC(=O)C=C4CC[C@H]3[C@@H]1CC[C@@]2(O)C(F)(F)C(F)(F)F
[B] C[C@]12C[C@H](c3ccc(CN4CCNCC4)cc3)C3=C4CCC(=O)C=C4CC[C@H]3[C@@H]1CC[C@@]2(O)C(F)(F)C(F)(F)F
[C] C[C@]12C[C@H](c3ccc(CN4CCS(=O)(=O)CC4)cc3)C3=C4CCC(=O)C=C4CCC3C1CC[C@@]2(O)C(F)(F)C(F)(F)F (stereo partly shown)
stdin: Parameters: sort_field (IC50), sort_dir (desc). Write the labels in rank order as requested.
stdout: B, A, C
(B: 0.88 nM, A: 0.51 nM, C: 0.1 nM)

[A] CN(C)C(=O)N1CCN(Cc2ccc([C@H]3C[C@@]4(C)[C@@H](CC[C@@]4(O)C(F)(F)C(F)(F)F)[C@@H]4CCC5=CC(=O)CCC5=C43)cc2)CC1
[B] C[C@]12C[C@H](c3ccc(CNCc4ccncc4)cc3)C3=C4CCC(=O)C=C4CC[C@H]3[C@@H]1CC[C@@]2(O)C(F)(F)C(F)(F)F
stdin: Record comparison, field IC50: mark the lower of A and B . Refer to your chosen item by its label in the answer.
stdout: A

[P] CC(=O)Nc1ccc(NCc2ccc([C@H]3C[C@@]4(C)[C@@H](CC[C@@]4(O)C(F)(F)C(F)(F)F)[C@@H]4CCC5=CC(=O)CCC5=C43)cc2)cc1
[Q] C[C@]12C[C@H](c3ccc(CN4CCN(Cc5ccncc5)CC4)cc3)C3=C4CCC(=O)C=C4CC[C@H]3[C@@H]1CC[C@@]2(O)C(F)(F)C(F)(F)F
stdin: Record comparison, field IC50: mark the lower of P and Q . Refer to your chosen item by its label in the answer.
stdout: P

[1] COC(=O)c1cccc(NCc2ccc([C@H]3C[C@@]4(C)[C@@H](CC[C@@]4(O)C(F)(F)C(F)(F)F)[C@@H]4CCC5=CC(=O)CCC5=C43)cc2)c1
[2] C[C@]12C[C@H](c3ccc(CN4CCN(Cc5cccnc5)CC4)cc3)C3=C4CCC(=O)C=C4CC[C@H]3[C@@H]1CC[C@@]2(O)C(F)(F)C(F)(F)F
[3] CN(C)CCN1CCN(Cc2ccc([C@H]3C[C@@]4(C)C(CC[C@@]4(O)C(F)(F)C(F)(F)F)C4CCC5=CC(=O)CCC5=C43)cc2)CC1 (stereo partly shown)
[4] CN(Cc1ccncc1)Cc1ccc([C@H]2C[C@@]3(C)[C@@H](CC[C@@]3(O)C(F)(F)C(F)(F)F)[C@@H]3CCC4=CC(=O)CCC4=C32)cc1
[5] COC(=O)C1CCN(Cc2ccc([C@H]3C[C@@]4(C)[C@@H](CC[C@@]4(O)C(F)(F)C(F)(F)F)[C@@H]4CCC5=CC(=O)CCC5=C43)cc2)CC1
stdin: Parameters: sort_field (IC50), sort_dir (desc). Write the labels in rank order as requested.
stdout: 3, 4, 2, 1, 5

[I] C[C@]12C[C@H](c3ccc(CNc4ccccc4C(N)=O)cc3)C3=C4CCC(=O)C=C4CCC3C1CC[C@@]2(O)C(F)(F)C(F)(F)F (stereo partly shown)
[II] C[C@]12C[C@H](c3ccc(CN4CCC(C(=O)O)CC4)cc3)C3=C4CCC(=O)C=C4CC[C@H]3[C@@H]1CC[C@@]2(O)C(F)(F)C(F)(F)F
[III] COC(=O)c1ccccc1NCc1ccc([C@H]2C[C@@]3(C)[C@@H](CC[C@@]3(O)C(F)(F)C(F)(F)F)[C@@H]3CCC4=CC(=O)CCC4=C32)cc1
stdin: Parameters: sort_field (IC50), sort_dir (desc). Write the labels in rank order as requested.
stdout: II, III, I
(II: 53 nM, III: 5.05 nM, I: 1.29 nM)
